This section presents compounds with their documented DC50 values.
study-target: BTK (Homo sapiens)
Construct: The GM01501.3 cell line endogenously expresses BTK with a HiBiT fusion tag via CRISPR knock-in at its C-terminal region; endogenous in cells; host or cells: GM01501.3 (GM01501 cells engineered by CRISPR knock-in of HiBiT at the BTK locus)
assay-remarks: BTK degradation assay using the HiBiT Method (Nano-Glo HiBiT Lytic Assay, GM01501.3 cells)
Assay type: cell-based
study-conditions: HiBiT Degradation on GM01501.3 BTK @ 6 hours
observation-type: DC50

compound | value-reported
CC(C)(C)c1nc(C(=O)NCc2ccc(-c3ncnn4cc(-c5ccc(CN6CCC(c7ccc(NC8CCC(=O)NC8=O)nc7)CC6)cc5)cc34)cc2F)no1 (stereo not drawn) | < 100 nM
Cc1cc(-c2ncnn3cc(-c4ccc(CN5CCC(c6ccc(NC7CCC(=O)NC7=O)cn6)CC5)cc4)cc23)ccc1CNC(=O)c1noc(C(C)(C)C)n1 (stereo not drawn) | < 100 nM
Cc1cc(-c2ncnn3cc(-c4ccc(CN5CCCC(c6ccc(C7CCC(=O)NC7=O)cc6)C5)cc4)cc23)ccc1CNC(=O)c1noc(C(C)(C)C)n1 (stereo not drawn) | 100 to 500 nM
Cc1cc(-c2ncnn3cc(-c4ccc(C(=O)NC5CCc6cc(NC7CCC(=O)NC7=O)ccc6C5)cc4)cc23)ccc1CNC(=O)c1noc(C(C)(C)C)n1 (stereo not drawn) | < 100 nM
Cc1cc(-c2ncnn3cc(CCCCN4CCC(c5ccc(NC6CCC(=O)NC6=O)cc5)CC4)cc23)ccc1CNC(=O)c1noc(C(C)(C)C)n1 (stereo not drawn) | < 100 nM
Cc1cc(-c2ncnn3cc(-c4ccc(CN5CCC(c6ccc(N[C@@H]7CCC(=O)NC7=O)cc6F)CC5)cc4)cc23)ccc1CNC(=O)c1noc(C(C)(C)C)n1 | < 100 nM

###

study-target: BTK (Homo sapiens)
Construct: The GM01501.3 cell line endogenously expresses BTK with a HiBiT fusion tag via CRISPR knock-in at its C-terminal region; endogenous in cells; host or cells: GM01501.3 (GM01501 cells engineered by CRISPR knock-in of HiBiT at the BTK locus)
assay-remarks: BTK degradation assay using the HiBiT Method (Nano-Glo HiBiT Lytic Assay, GM01501.3 cells)
Format: cell-based
study-conditions: HiBiT Degradation on GM01501.3 BTK @ 6 hours

compound | DC50
Cc1cc(-c2ncnn3cc(-c4ccc(CN5CCC(c6ccc(NC7CCC(=O)NC7=O)cc6)CC5)cc4)cc23)ccc1CNC(=O)c1ccc(F)cc1 (stereo not shown) [Example 64] | < 100 nM
COc1cc(-c2ncnn3cc(-c4ccc(CN5CCC(c6ccc(C7CCC(=O)NC7=O)cc6)CC5)cc4)cc23)ccc1CNC(=O)c1noc(C(C)(C)C)n1 (stereo not shown) [Example 43] | < 100 nM
Cc1cc(-c2ncnn3cc(CCN4CCC(c5ccc(OC6CCC(=O)NC6=O)cc5)CC4)cc23)ccc1CNC(=O)c1noc(C(C)(C)C)n1 (stereo not shown) [Example 118] | < 100 nM
CC(C)(C)c1nc(C(=O)NCc2ccc(-c3ncnn4cc(CCN5CCC(c6ccc(NC7CCC(=O)NC7=O)cn6)CC5)cc34)cc2F)no1 (stereo not shown) [Example 122] | < 100 nM
CN(Cc1ccc(-c2ncnn3cc(-c4ccc(CN5CCC(c6ccc7c(N8CCC(=O)NC8=O)nn(C)c7c6)CC5)cc4)cc23)cc1F)C(=O)c1noc(C(C)(C)C)n1 [Example 37] | 100 to 500 nM
Cc1cc(-c2ncnn3cc(-c4ccc(CN5CCC(c6ccc(NC7CCC(=O)NC7=O)cc6)CC5)cc4)cc23)ccc1CNC(=O)c1coc(C(C)(C)C)n1 (stereo not shown) [Example 78] | < 100 nM
Cc1cc(-c2ncnn3cc(-c4ccc(CN5CCC(c6ccc(NC7CCC(=O)NC7=O)cc6)CC5)cc4)cc23)ccc1CNC(=O)c1ccc(C(C)(F)F)cc1 (stereo not shown) [Example 72] | < 100 nM
COc1cc(CN2CCC(c3ccc(NC4CCC(=O)NC4=O)cc3)CC2)ccc1-c1cc2c(-c3ccc(CNC(=O)c4noc(C(C)(C)C)n4)c(C)c3)ncnn2c1 (stereo not shown) [Example 21] | < 100 nM
Cc1cc(-c2ncnn3cc(CN4CCN(CCCc5ccc(NC6CCC(=O)NC6=O)cc5)CC4)cc23)ccc1CNC(=O)c1noc(C(C)(C)C)n1 (stereo not shown) [Example 126] | 100 to 500 nM
Cc1cc(-c2ncnn3cc(-c4cccc(-n5cc(CN6CCC(c7ccc(C8CCC(=O)NC8=O)cc7)CC6)c(C)n5)c4)cc23)ccc1CNC(=O)c1noc(C(C)(C)C)n1 (stereo not shown) [Example 205] | < 100 nM
Cc1cc(-c2ncnn3cc(-c4ccc(-c5n[nH]cc5CN5CCC(c6ccc(C7CCC(=O)NC7=O)cc6)CC5)s4)cc23)ccc1CNC(=O)c1noc(C(C)(C)C)n1 (stereo not shown) [Example 220] | < 100 nM
Cc1ccc(C(=O)NCc2ccc(-c3ncnn4cc(-c5ccc(CN6CCC(c7ccc(NC8CCC(=O)NC8=O)cc7)CC6)cc5)cc34)cc2C)nc1 (stereo not shown) [Example 87] | < 100 nM
Cc1cc(-c2ncnn3cc(-c4ccc(CN5CCCC(c6ccc(NC7CCC(=O)NC7=O)cc6)C5)cc4)cc23)ccc1CNC(=O)c1noc(C(C)(C)C)n1 (stereo not shown) [Example 7] | < 100 nM
Cc1cc(-c2ncnn3cc(-c4ccc(CN5CCC(c6ccc(NC7CCC(=O)NC7=O)cc6)CC5)cc4)cc23)ccc1CNC(=O)c1noc(C(C)(C)C)n1 (single isomer, unassigned; isomer 1) [Example 2] | < 100 nM
Cc1cc(-c2ncnn3cc(-c4ccc5sc(CN6CCC(c7ccc(C8CCC(=O)NC8=O)cc7)CC6)cc5n4)cc23)ccc1CNC(=O)c1noc(C(C)(C)C)n1 (stereo not shown) [Example 218] | 100 to 500 nM
Cc1cc(-c2ncnn3cc(COCCN4CCC(c5ccc(C6CCC(=O)NC6=O)cc5)CC4)cc23)ccc1CNC(=O)c1noc(C(C)(C)C)n1 (stereo not shown) [Example 144] | < 100 nM
Cc1cc(-c2ncnn3cc(CCN4CCC(c5ccc(NC6CCC(=O)NC6=O)cc5)CC4)cc23)ccc1CNC(=O)c1noc(C(C)(C)C)n1 (stereo not shown) [Example 117] | < 100 nM
Cc1cc(-c2ncnn3cc(OCCCN4CCC[C@@H](c5ccc6c(N7CCC(=O)NC7=O)nn(C)c6c5)C4)cc23)ccc1CNC(=O)c1noc(C(C)(C)C)n1 (single isomer, unassigned) [Example 292] | < 100 nM
Cc1cc(-c2ncnn3cc(-c4ccc(CN5CCC(c6ccc7c(N8CCC(=O)NC8=O)nn(C)c7c6)CC5)cc4F)cc23)ccc1CNC(=O)c1noc(C(C)(C)C)n1 [Example 246] | < 100 nM
CC(C)(C)c1nc(C(=O)NCc2ccc(-c3ncnn4cc(C#CC(F)(F)CN5CCC(c6ccc(C7CCC(=O)NC7=O)cc6)CC5)cc34)cc2F)no1 (stereo not shown) [Example 225] | > 1000 nM
Cc1cc(-c2ncnn3cc(-c4nccc(CN5CCC(c6ccc(C7CCC(=O)NC7=O)cc6)CC5)c4F)cc23)ccc1CNC(=O)c1noc(C(C)(C)C)n1 (stereo not shown) [Example 217] | < 100 nM
Cc1cc(-c2ncnn3cc(-c4ccc(CN5CCC(c6ccc(C7CCC(=O)NC7=O)cc6F)CC5)cc4)cc23)ccc1CNC(=O)c1noc(C(C)(C)C)n1 (stereo not shown) [Example 9] | < 100 nM

###

study-target: BTK (Homo sapiens, UniProt Q06187)
Construct: The GM01501.3 cell line endogenously expresses BTK with a HiBiT fusion tag via CRISPR knock-in at its C-terminal region; endogenous in cells; host or cells: GM01501.3 (GM01501 cells engineered by CRISPR knock-in of HiBiT at the BTK locus)
Sequence (Q06187 whole entry, the tested form may be a part): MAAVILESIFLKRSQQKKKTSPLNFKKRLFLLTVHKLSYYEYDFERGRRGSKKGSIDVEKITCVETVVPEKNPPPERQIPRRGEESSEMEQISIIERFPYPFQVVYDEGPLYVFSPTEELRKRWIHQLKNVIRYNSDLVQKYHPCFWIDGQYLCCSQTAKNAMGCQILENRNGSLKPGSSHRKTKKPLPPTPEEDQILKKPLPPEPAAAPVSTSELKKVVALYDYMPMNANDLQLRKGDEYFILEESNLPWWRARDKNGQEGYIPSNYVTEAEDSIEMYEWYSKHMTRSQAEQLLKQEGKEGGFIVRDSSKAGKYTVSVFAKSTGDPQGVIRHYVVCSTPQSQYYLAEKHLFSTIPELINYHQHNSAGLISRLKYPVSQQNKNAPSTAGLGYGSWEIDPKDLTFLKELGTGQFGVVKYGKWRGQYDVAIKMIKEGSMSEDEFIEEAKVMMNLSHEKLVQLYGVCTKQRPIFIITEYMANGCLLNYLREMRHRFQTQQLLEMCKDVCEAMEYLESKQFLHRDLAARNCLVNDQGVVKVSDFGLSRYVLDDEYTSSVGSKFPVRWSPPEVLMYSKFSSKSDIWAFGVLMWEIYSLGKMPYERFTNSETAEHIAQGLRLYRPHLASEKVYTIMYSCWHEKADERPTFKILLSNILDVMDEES
assay-remarks: BTK degradation assay using the HiBiT Method (Nano-Glo HiBiT Lytic Assay, GM01501.3 cells)
Format: cell-based
study-conditions: HiBiT Degradation on GM01501.3 BTK @ 6 hours

compound | DC50
CC(C)(C)c1nc(C(=O)NCc2ccc(-c3ncnn4cc(CCCCN5CCC(c6ccc(C7(C)CCC(=O)NC7=O)cc6)CC5)cc34)cc2F)no1 (single isomer, unassigned) [Example 141] | < 100 nM
CC(C)(C)c1nc(C(=O)NCc2ccc(-c3ncnn4cc(-c5ccc(CN6CCC(c7ccc(NC8CCC(=O)NC8=O)cc7)CC6)cc5)cc34)cc2)no1 (stereo not drawn) | < 100 nM
Cc1cc(-c2ncnn3cc(-c4ccc(CN5CCC(c6ccc(NC7CCC(=O)NC7=O)cc6)CC5)cc4)cc23)ccc1CNC(=O)c1ccc(C(C)C)nn1 (stereo not drawn) | < 100 nM
Cc1cc(-c2ccnn3cc(CCCCN4CCC(c5ccc(NC6CCC(=O)NC6=O)cc5)CC4)cc23)ccc1CNC(=O)c1noc(C(C)(C)C)n1 (stereo not drawn) | < 100 nM
Cc1cc(-c2ncnn3cc(-c4cccc(CN5CCC(c6ccc(OC7CCC(=O)NC7=O)cc6)CC5)n4)cc23)ccc1CNC(=O)c1noc(C(C)(C)C)n1 (stereo not drawn) | < 100 nM
Cc1cc(-c2ncnn3cc(-c4ccc(CN5CCC(c6ccc(NC7CCC(=O)NC7=O)cc6)CC5)cc4)cc23)ccc1CNC(=O)N1CCC(OC(C)(C)C)C1 (stereo not drawn) | < 100 nM
